Hello, the source for this data is PubChem BioAssay (NCI), in case you need it.

The reader will find reported growth values listed item by item below.
# Tested on: M14 melanoma
# assay.text: NCI-60 one-dose screen, 48 h (100 = growth as untreated, 0 = no growth, -100 = all killed)
# measurement.parameters: 10 µM unless noted
Compounds without any hit were thinned out: in the full panel of roughly 83,000, 20% have a hit.
Quick note: give the figure in %, leave out the unit.

Solved entries:
CCNCCNc1cc(-c2cccc(C(F)(F)F)c2)c(C#N)c2nc3ccccc3n12 | -89.3
Fc1ccc(Nc2ccc3cc(OCCCN4CCOCC4)ccc3n2)cc1F | -6.62
CCOC(=O)c1c(C)nc2c(c1N)/C(=C/c1cc(OC)c(OC)c(OC)c1)C(=O)N2c1ccc(OC)cc1 | 43.6
C[C@@H]1C(=O)N(C[C@H](Cc2ccccc2)N(Cc2ccccc2)Cc2ccccc2)[C@]1(Cc1ccccc1)C(=O)OC(C)(C)C | 75.4
Cc1[nH]c(-c2nc3ccccc3[nH]2)c(C)c1C(=O)N1CCc2sccc2C1 | 94.6
CCOC(=O)N1CCc2c(sc3c2C(=O)N[C@H](c2ccc(OC)cc2)N3)C1 | 94.7
C=C(C)[C@@H]1CC[C@]2(C(=O)NCC(=O)O)CC[C@]3(C)[C@H](CC[C@@H]4[C@@]5(C)Cc6c([nH]c7ccccc67)C(C)(C)[C@@H]5CC[C@]43C)[C@@H]12 | 86.9
NC(N)=N/N=C/CO | 99

input: Query (molecule): OCCCCc1nccc2c1[nH]c1ccccc12 ; field requested: growth
output: 102

input: What measured growth goes with CCCCOc1ccc(NC(=O)n2nc(N=NN(C)C)c3ccc(Cl)cc32)cc1 ?
output: 89.4

input: Entry CCCCCCCSc1ccc(C(=O)O)cc1 has what growth?
output: 113

input: So what does the record say about growth for Clc1ccc(-c2nnc(-c3ccco3)o2)cc1 ?
output: 101

input: Dear colleague, I am looking for the recorded growth of the following molecule: COc1cccc(-c2nc3sccn3c2-c2ccnc(NCCNS(=O)(=O)c3c(Cl)cccc3Cl)c2)c1
output: 57.7

input: Any idea what growth was measured for Cc1cnc(Nc2ccc(N3CCN(C)CC3)cc2)nc1Nc1ccc(Cl)c(NS(=O)(=O)C(C)(C)C)c1 ?
output: 8.84

input: Which measured growth value corresponds to O=[N+]([O-])c1ccc(-c2cc3c(Nc4ccc(Sc5nc6ccccc6s5)c(Cl)c4)ncnc3s2)cc1 ?
output: 35.2

input: What does the record list as growth for [2H]c1nc(Nc2ncc(F)c(-c3cc(F)c4nc(C)n(C(C)C)c4c3)n2)c([2H])c([2H])c1CN1CCN(C([2H])([2H])C([2H])([2H])[2H])CC1 ?
output: 47.5

input: Consider the molecule COc1cc2c(cc1OC)-c1ccc3cc4c(cc3c1N(CCN(C)C)C2)OCO4 and give its measured growth.
output: -7.62

input: Consider the molecule shown here: O=[N+]([O-])c1ccccc1C(O)Cc1ccc2ccccc2n1 (stereo not drawn) What is its recorded growth?
output: 90

input: Look up growth for this molecule: O=C1C2=C(CCN(Cc3ccccc3)C2)N2CCN=C2N1Cc1ccc(C(F)(F)F)cc1
output: 37.2

input: // returns reported growth for input C=CCOc1cccc(/C=C2\SC(=Nc3ccc(O)cc3)NC2=O)c1
output: 9.92

input: Endpoint output: growth of C=C1c2c(C)nn(-c3ccc(S(N)(=O)=O)cc3)c2N(C)C23CC1C1(C)c4c(C)nn(-c5ccc(S(N)(=O)=O)cc5)c4N(C)C(C)(CC12)C3 (stereo not drawn) . Value?
output: 20.6

input: For the molecule CCN(CC)CCCNC(=O)c1ccc(N)cc1O , what growth is on record?
output: 94.5
